In this section we review reported Ki values for a set of compounds.
test_target: vanilloid receptor 1 (VR1/TRPV1 receptor) (Homo sapiens)
Construct: expressed in transfected cells; host or cells: CHO K1
Sequence (Q8NER1 whole entry): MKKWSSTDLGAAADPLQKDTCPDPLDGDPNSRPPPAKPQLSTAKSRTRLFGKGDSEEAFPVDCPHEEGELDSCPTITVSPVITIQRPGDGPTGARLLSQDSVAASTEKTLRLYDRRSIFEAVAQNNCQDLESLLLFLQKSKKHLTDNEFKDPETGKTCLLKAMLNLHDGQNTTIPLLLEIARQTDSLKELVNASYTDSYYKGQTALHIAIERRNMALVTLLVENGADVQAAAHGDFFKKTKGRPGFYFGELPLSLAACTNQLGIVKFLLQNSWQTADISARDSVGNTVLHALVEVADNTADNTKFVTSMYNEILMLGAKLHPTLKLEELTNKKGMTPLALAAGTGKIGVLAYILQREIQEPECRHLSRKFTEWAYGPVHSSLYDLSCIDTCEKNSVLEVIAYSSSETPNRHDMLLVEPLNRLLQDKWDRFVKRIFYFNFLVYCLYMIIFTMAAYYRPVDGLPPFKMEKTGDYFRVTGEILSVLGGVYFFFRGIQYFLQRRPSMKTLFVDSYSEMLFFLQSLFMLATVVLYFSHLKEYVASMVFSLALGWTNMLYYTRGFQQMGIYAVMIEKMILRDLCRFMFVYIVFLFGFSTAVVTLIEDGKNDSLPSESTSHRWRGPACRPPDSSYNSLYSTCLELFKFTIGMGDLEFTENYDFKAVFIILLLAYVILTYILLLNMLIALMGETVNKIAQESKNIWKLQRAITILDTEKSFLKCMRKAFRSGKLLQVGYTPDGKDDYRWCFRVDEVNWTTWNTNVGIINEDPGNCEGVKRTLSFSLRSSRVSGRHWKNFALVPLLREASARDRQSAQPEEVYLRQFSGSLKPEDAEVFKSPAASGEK
assay: Functional testing on the vanilloid receptor 1 (VR1/TRPV1): FLIPR Ca2+ influx assay, displacement of capsaicin
Assay type: cell-based, human being
measurement_conditions: capsaicin (Cap) as stimulus; Ki from IC50 by Cheng-Prusoff; read-out: (f) Ki (human being) [nM] Cap
Give the quantity in nM, number only.

[
  {
    "compound": "CC(C(=O)NCc1cc(C(F)(F)F)nn1-c1cccc(Cl)c1)c1cnc(C(=O)Nc2ccc(C(F)(F)F)cc2)nc1 (stereo not drawn)",
    "test_target": "vanilloid receptor 1 (VR1/TRPV1 receptor) (Homo sapiens)",
    "Ki / nM": 61
  },
  {
    "compound": "COc1ccc(C(C)C(=O)NCc2cc(C(F)(F)F)nn2-c2cccc(Cl)c2)cn1 (stereo not drawn)",
    "test_target": "vanilloid receptor 1 (VR1/TRPV1 receptor) (Homo sapiens)",
    "Ki / nM": 13
  },
  {
    "compound": "O=C(NCc1cc(C(F)(F)F)nn1-c1cccc(F)c1)Nc1ccc(N2CC(O)C2)nc1",
    "test_target": "vanilloid receptor 1 (VR1/TRPV1 receptor) (Homo sapiens)",
    "Ki / nM": 48
  }
]

Determine from records and report Ki for O=C(NCc1cc(C(F)(F)F)nn1-c1cccc(Cl)c1)Nc1cncc(F)c1
39

Determine from records and report Ki for CC(C(=O)NCc1cc(C(C)(C)C)nn1-c1cccc(Cl)c1)c1ccc(C(=O)Nc2ccc(C(F)(F)F)cc2)nc1 (stereo not drawn)
45

Determine from records and report Ki for CC(C(=O)NCc1cc(C(F)(F)F)nn1-c1cccc(Cl)c1)c1ccc(NCCO)nc1 (stereo not drawn)
0.6

Determine from records and report Ki for CC(C(=O)NCc1cc(C(C)(C)C)nn1-c1cccc(Cl)c1)c1ccc(NC(=O)c2ccc(Cl)cc2)nc1 (stereo not drawn)
2

Determine from records and report Ki for O=C(NCc1cc(C(F)(F)F)nn1-c1cccc(Cl)c1)Nc1ccc(OCCO)nc1
88

Determine from records and report Ki for O=C(NCc1cc(C(F)(F)F)nn1-c1cccc(Cl)c1)Nc1ccc(N2CCCC2)nc1
47
